Below, each entry is listed alongside its reported LD50.
test: acute toxicity (single oral administration); settings: mouse, in vivo; p.o., single oral administration to mice; read-out: Toxicity LD 50

Known results for compounds:
molecule=C=C(C)C(=O)CC/C(C)=C/CC/C(C)=C/C(N)=O value_observed="1000 to 2000 mg/kg"
molecule=C=C(C)C(=O)CC/C(C)=C\CC/C(C)=C/CO value_observed="2500 to 5000 mg/kg"
molecule=C=C(C)C(=O)CC/C(C)=C\CC/C(C)=C\CO value_observed="2500 to 5000 mg/kg"

Inquiry: Bench note: what LD50 did "C=C(C)C(=O)CC/C(C)=C/CC/C(C)=C\CO" show?
Reply text: 625 to 1250 mg/kg

* * *

test system: mucous membrane of the stomach; experiment: ethanol test (mucosa-protective activity; ethanol-induced gastric lesions); type: in vivo, male rats; conditions: Rattus norvegicus, po, 30 minutes before ethanol; dosage reducing number of lesions by 50% vs control; male rats; read-out: Ethanol Test ID 50
Below, each entry is listed alongside its reported log10 ED50.
Scale: log10; quantity: ED50; unit before log: mg/kg

compound=C=C(C)C(=O)CC/C(C)=C/CC/C(C)=C/C(=O)O value_observed=0.70

Then this compound:
Inquiry: Provide the documented log10 ED50 with mucous membrane of the stomach as the system for C#CC(CC/C(C)=C/CC/C(C)=C/CO)=NOC (mixture of isomers)
Reply text: 0.90

* * *

Below, each entry is listed alongside its reported ED50.
tested on: mucous membrane of the stomach; test: ethanol test (mucosa-protective activity; ethanol-induced gastric lesions); type: in vivo, male rats; settings: Rattus norvegicus, po, 30 minutes before ethanol; dosage reducing number of lesions by 50% vs control; male rats; read-out: Ethanol Test ID 50
Express the result in mg/kg but write the number alone.

compound=C#CC(=O)CC/C(C)=C/CC/C(C)=C/CO system_name="mucous membrane of the stomach" value_observed=0.55
compound="C=C(C)C(O)CC/C(C)=C/CC/C(C)=C/C=O (stereo not drawn)" system_name="mucous membrane of the stomach" value_observed=6.4

Inquiry: Bench note: what ED50 did "C=C(C)C(=O)CC/C(C)=C/CC/C(C)=C/C=O" show?
Reply text: 1.8

Inquiry: Bench note: what ED50 did "C#CC(CC/C(C)=C/CC/C(C)=C/CO)(OCC)OCC" show?
Reply text: 0.93

Inquiry: Bench note: what ED50 did "C=C(C)C(=O)CC/C(C)=C/CC/C(C)=C/CO" show?
Reply text: 1.3

* * *

Below, each entry is listed alongside its reported ED50.
system: mucous membrane of the stomach; assay: ethanol test (mucosa-protective activity; ethanol-induced gastric lesions); format: in vivo, male rats; conditions: Rattus norvegicus, po, 30 minutes before ethanol; dosage reducing number of lesions by 50% vs control; male rats; read-out: Ethanol Test ID 50
Express the result in mg/kg but write the number alone.

compound="C=C(C)C(O)CC/C(C)=C/CC/C(C)=C/CO (stereo not shown) [N]" unit_info=mg/kg value_observed=3.2
compound="C=C(C)C(=O)CC/C(C)=C\\CC/C(C)=C/CO [M]" unit_info=mg/kg value_observed=4.5
compound="C/C=C/C(=O)CC/C(C)=C/CC/C(C)=C/CO [D]" unit_info=mg/kg value_observed=0.79
compound="CC(C)=CC(=O)CC/C(C)=C/CC/C(C)=C/CO [K]" unit_info=mg/kg value_observed=3.6
compound="C=C(C)C(O)CC/C(C)=C/CC/C(C)=C/C(=O)O (stereo not shown) [O]" unit_info=mg/kg value_observed=26.8
compound="C=C(C)C(=O)CC/C(C)=C/CC/C(C)=C\\CO [L]" unit_info=mg/kg value_observed=4.4
compound="C=C(C)C1(CC/C(C)=C/CC/C(C)=C/CO)OCCO1 [I]" unit_info=mg/kg value_observed=2.7
compound="C=C(C)C(=O)CC/C(C)=C/CC/C(C)=C/C=NO (mixture of isomers) [T]" unit_info=mg/kg value_observed=7.8
compound="C=CC(=O)CC/C(C)=C/CC/C(C)=C/CO [B]" unit_info=mg/kg value_observed=0.62
compound="C=C(C)C(CC/C(C)=C/CC/C(C)=C/CO)(OC)OC [Q]" unit_info=mg/kg value_observed=5.3

Inquiry: Bench note: what ED50 did CC=CC(O)CC/C(C)=C/CC/C(C)=C/CO (mixture of isomers) [V] show?
Reply text: 9.3

Inquiry: Bench note: what ED50 did CC#CC(=O)CC/C(C)=C/CC/C(C)=C/CO [C] show?
Reply text: 0.78

Inquiry: Bench note: what ED50 did C=C(C)C(=O)CC/C(C)=C\CC/C(C)=C\CO [H] show?
Reply text: 1.8
